- Test system: Escherichia coli
- ASSAY REMARKS: Antimicrobial activity against Escherichia coli CIP 53126 after 18 to 24 hrs by broth microdilution method
- Format: functional
Please provide measured log10 MBC for the entries that follow.
Would you kindly interpret these values as log10 of MBC expressed in µM?

Input: Return reported log10 MBC. Input compound: `CCCCCCCCCCCCCCCC(=O)OCC(=O)N1CCN(c2cc3c(cc2F)c(=O)c(C(=O)O)cn3C2CC2)CC1`
Output: 2.70

Input: Return reported log10 MBC. Input compound: `CCCCNC(=O)c1cn2c3c(c(N4CCN(C)CC4)c(F)cc3c1=O)OC[C@@H]2C`
Output: 1.80

Input: Return reported log10 MBC. Input compound: `O=C(O)c1cn(C2CC2)c2cc(N3CCN(C(=O)Cc4ccccc4)CC3)c(F)cc2c1=O`
Output: 0.89

Input: Return reported log10 MBC. Input compound: `CCCCCCCCCC(=O)OCC(=O)N1CCN(c2cc3c(cc2F)c(=O)c(C(=O)O)cn3C2CC2)CC1`
Output: 1.19

Input: Return reported log10 MBC. Input compound: `CCCCCCCCCCCC(=O)N1CCN(c2cc3c(cc2F)c(=O)c(C(=O)O)cn3C2CC2)CC1`
Output: 0.89

Input: Return reported log10 MBC. Input compound: `CCCCCCCCC(=O)OCC(=O)N1CCN(c2cc3c(cc2F)c(=O)c(C(=O)O)cn3C2CC2)CC1`
Output: 2.70

Input: Return reported log10 MBC. Input compound: `C[C@H]1COc2c(N3CCN(C)CC3)c(F)cc3c(=O)c(C(=O)NCCCCCNC(=O)c4cn5c6c(c(N7CCN(C)CC7)c(F)cc6c4=O)OC[C@@H]5C)cn1c23`
Output: 1.80

Input: Return reported log10 MBC. Input compound: `CCCCCCCCCCCCCC(=O)OCOC(=O)c1cn2c3c(c(N4CCN(C)CC4)c(F)cc3c1=O)OC[C@@H]2C`
Output: 1.19

Input: Return reported log10 MBC. Input compound: `CCCCCCCCCCC(=O)OCC(=O)N1CCN(c2cc3c(cc2F)c(=O)c(C(=O)O)cn3C2CC2)CC1`
Output: 2.40

Input: Return reported log10 MBC. Input compound: `CCCCC(=O)N1CCN(c2cc3c(cc2F)c(=O)c(C(=O)O)cn3C2CC2)CC1`
Output: 1.19

Input: Return reported log10 MBC. Input compound: `CCOC(=O)N1CCN(c2cc3c(cc2F)c(=O)c(C(=O)O)cn3C2CC2)CC1`
Output: 1.49

Input: Return reported log10 MBC. Input compound: `O=C(CCCCCCCCC(=O)OCN1CCN(c2cc3c(cc2F)c(=O)c(C(=O)O)cn3C2CC2)CC1)OCN1CCN(c2cc3c(cc2F)c(=O)c(C(=O)O)cn3C2CC2)CC1`
Output: 1.80

Input: Return reported log10 MBC. Input compound: `O=C(O)c1cn(C2CC2)c2cc(N3CCN(C(=O)CCCCCCCCCCCCCCCCC(=O)N4CCN(c5cc6c(cc5F)c(=O)c(C(=O)O)cn6C5CC5)CC4)CC3)c(F)cc2c1=O`
Output: 2.70

Input: Return reported log10 MBC. Input compound: `CCCCCCCCCCNC(=O)c1cn2c3c(c(N4CCN(C)CC4)c(F)cc3c1=O)OC[C@@H]2C`
Output: 2.70

Input: Return reported log10 MBC. Input compound: `C[C@H]1COc2c(N3CCN(C)CC3)c(F)cc3c(=O)c(C(=O)NCCCCCCNC(=O)c4cn5c6c(c(N7CCN(C)CC7)c(F)cc6c4=O)OC[C@@H]5C)cn1c23`
Output: 1.80

###

Please provide measured log10 of MBC for the entries that follow.
- System: Enterococcus hirae
- ASSAY REMARKS: Antimicrobial activity against Enterococcus hirae CIP 5855 after 18 to 24 hrs by broth microdilution method
- Type: functional
Would you kindly interpret these values as log10 of MBC expressed in µM?

Input: Provide measured log10 of MBC on Enterococcus hirae for `O=C(O)c1cn(C2CC2)c2cc(N3CCN(C(=O)CCCCCCCCCCC(=O)N4CCN(c5cc6c(cc5F)c(=O)c(C(=O)O)cn6C5CC5)CC4)CC3)c(F)cc2c1=O` please.
Output: 2.70

Input: Provide measured log10 of MBC on Enterococcus hirae for `CCCCCCCCCCNC(=O)c1cn2c3c(c(N4CCN(C)CC4)c(F)cc3c1=O)OC[C@@H]2C` please.
Output: 1.19

Input: Provide measured log10 of MBC on Enterococcus hirae for `O=C(O)c1cn(C2CC2)c2cc(N3CCN(C(=O)CO)CC3)c(F)cc2c1=O` please.
Output: 0.89

Input: Provide measured log10 of MBC on Enterococcus hirae for `CCCCCCCCCCCCCCNC(=O)c1cn2c3c(c(N4CCN(C)CC4)c(F)cc3c1=O)OC[C@@H]2C` please.
Output: 0.59

Input: Provide measured log10 of MBC on Enterococcus hirae for `C[C@H]1COc2c(N3CCN(C)CC3)c(F)cc3c(=O)c(C(=O)NCCCCCNC(=O)c4cn5c6c(c(N7CCN(C)CC7)c(F)cc6c4=O)OC[C@@H]5C)cn1c23` please.
Output: 2.40

Input: Provide measured log10 of MBC on Enterococcus hirae for `O=C(O)c1cn(C2CC2)c2cc(N3CCN(C(=O)CCCCCCCCCCCCCC(=O)N4CCN(c5cc6c(cc5F)c(=O)c(C(=O)O)cn6C5CC5)CC4)CC3)c(F)cc2c1=O` please.
Output: 2.70

Input: Provide measured log10 of MBC on Enterococcus hirae for `CCCCCCCCCCCCCC(=O)N1CCN(c2cc3c(cc2F)c(=O)c(C(=O)O)cn3C2CC2)CC1` please.
Output: 2.40

Input: Provide measured log10 of MBC on Enterococcus hirae for `CCCCCCCCNC(=O)c1cn2c3c(c(N4CCN(C)CC4)c(F)cc3c1=O)OC[C@@H]2C` please.
Output: 1.49

###

- System: Staphylococcus aureus
- ASSAY REMARKS: Antimicrobial activity against Staphylococcus aureus CIP 4.83 after 18 to 24 hrs by broth microdilution method
- Type: functional
REPORTED METRIC: log10 of MBC (log10 of the value in µM)
Would you kindly interpret these values as log10 of MBC expressed in µM?

Input: Provide measured log10 of MBC on Staphylococcus aureus for `C[C@H]1COc2c(N3CCN(C)CC3)c(F)cc3c(=O)c(C(=O)NCCCCCCCCCCCCNC(=O)c4cn5c6c(c(N7CCN(C)CC7)c(F)cc6c4=O)OC[C@@H]5C)cn1c23` please.
Output: 0.28

Input: Provide measured log10 of MBC on Staphylococcus aureus for `CCCCCCCCCCCCCC(=O)N1CCN(c2cc3c(cc2F)c(=O)c(C(=O)O)cn3C2CC2)CC1` please.
Output: 2.10

Input: Provide measured log10 of MBC on Staphylococcus aureus for `CCCCCCCCCCCCCCCNC(=O)c1cn2c3c(c(N4CCN(C)CC4)c(F)cc3c1=O)OC[C@@H]2C` please.
Output: 1.19

Input: Provide measured log10 of MBC on Staphylococcus aureus for `CCCCCCCCCC(=O)N1CCN(c2cc3c(cc2F)c(=O)c(C(=O)O)cn3C2CC2)CC1` please.
Output: 1.80

Input: Provide measured log10 of MBC on Staphylococcus aureus for `CCCCCCCCCCNC(=O)c1cn2c3c(c(N4CCN(C)CC4)c(F)cc3c1=O)OC[C@@H]2C` please.
Output: 0.89

Input: Provide measured log10 of MBC on Staphylococcus aureus for `CCCCCCCCCCCCOC(=O)N1CCN(c2cc3c(cc2F)c(=O)c(C(=O)O)cn3C2CC2)CC1` please.
Output: 2.10

Input: Provide measured log10 of MBC on Staphylococcus aureus for `CC(=O)N1CCN(c2cc3c(cc2F)c(=O)c(C(=O)O)cn3C2CC2)CC1` please.
Output: 0.28

Input: Provide measured log10 of MBC on Staphylococcus aureus for `O=C(CCCCCCCCC(=O)OCN1CCN(c2cc3c(cc2F)c(=O)c(C(=O)O)cn3C2CC2)CC1)OCN1CCN(c2cc3c(cc2F)c(=O)c(C(=O)O)cn3C2CC2)CC1` please.
Output: 2.40

Input: Provide measured log10 of MBC on Staphylococcus aureus for `CCCCCCCCCCOC(=O)N1CCN(c2cc3c(cc2F)c(=O)c(C(=O)O)cn3C2CC2)CC1` please.
Output: 1.80

Input: Provide measured log10 of MBC on Staphylococcus aureus for `CCCCCCCCCCCCCCCC(=O)OCC(=O)N1CCN(c2cc3c(cc2F)c(=O)c(C(=O)O)cn3C2CC2)CC1` please.
Output: 2.70

Input: Provide measured log10 of MBC on Staphylococcus aureus for `C[C@H]1COc2c(N3CCN(C)CC3)c(F)cc3c(=O)c(C(=O)NCCCCCCNC(=O)c4cn5c6c(c(N7CCN(C)CC7)c(F)cc6c4=O)OC[C@@H]5C)cn1c23` please.
Output: 2.70

Input: Provide measured log10 of MBC on Staphylococcus aureus for `CCCCNC(=O)c1cn2c3c(c(N4CCN(C)CC4)c(F)cc3c1=O)OC[C@@H]2C` please.
Output: 2.10

Input: Provide measured log10 of MBC on Staphylococcus aureus for `O=C(O)c1cn(C2CC2)c2cc(N3CCN(C(=O)CCCCCCCCCCCCCCC(=O)N4CCN(c5cc6c(cc5F)c(=O)c(C(=O)O)cn6C5CC5)CC4)CC3)c(F)cc2c1=O` please.
Output: 1.19

Input: Provide measured log10 of MBC on Staphylococcus aureus for `C[C@H]1COc2c(N3CCN(C)CC3)c(F)cc3c(=O)c(C(=O)NCCCCCNC(=O)c4cn5c6c(c(N7CCN(C)CC7)c(F)cc6c4=O)OC[C@@H]5C)cn1c23` please.
Output: 2.70

Input: Provide measured log10 of MBC on Staphylococcus aureus for `O=C(O)c1cn(C2CC2)c2cc(N3CCN(C(=O)CCCCCCCCCCCCCCCCC(=O)N4CCN(c5cc6c(cc5F)c(=O)c(C(=O)O)cn6C5CC5)CC4)CC3)c(F)cc2c1=O` please.
Output: 2.70

Input: Provide measured log10 of MBC on Staphylococcus aureus for `O=C(CCCCCCCCCCCCCCCCC(=O)OCN1CCN(c2cc3c(cc2F)c(=O)c(C(=O)O)cn3C2CC2)CC1)OCN1CCN(c2cc3c(cc2F)c(=O)c(C(=O)O)cn3C2CC2)CC1` please.
Output: 1.19

Input: Provide measured log10 of MBC on Staphylococcus aureus for `O=C(O)c1cn(C2CC2)c2cc(N3CCN(C(=O)CO)CC3)c(F)cc2c1=O` please.
Output: 0.28

Input: Provide measured log10 of MBC on Staphylococcus aureus for `CCCCCCCCCCCCCCNC(=O)c1cn2c3c(c(N4CCN(C)CC4)c(F)cc3c1=O)OC[C@@H]2C` please.
Output: 1.49

Input: Provide measured log10 of MBC on Staphylococcus aureus for `CCCCCCNC(=O)c1cn2c3c(c(N4CCN(C)CC4)c(F)cc3c1=O)OC[C@@H]2C` please.
Output: 2.40

Input: Provide measured log10 of MBC on Staphylococcus aureus for `CCCCCCCCOC(=O)N1CCN(c2cc3c(cc2F)c(=O)c(C(=O)O)cn3C2CC2)CC1` please.
Output: 1.80

Numbers sourced from ChEMBL document CHEMBL1914411.
